Please provide measured FACS geometric mean fold change over Jurkat parental for the entries that follow.
ASSAYED SYSTEM: T1, huFLT3-M227 stably expressed on Ramos cells (human, UniProt P36888 27-993)
T1 construct: whole, on cells; also called FLT3 Mutant
T1 sequence (P36888 27-993 T227M): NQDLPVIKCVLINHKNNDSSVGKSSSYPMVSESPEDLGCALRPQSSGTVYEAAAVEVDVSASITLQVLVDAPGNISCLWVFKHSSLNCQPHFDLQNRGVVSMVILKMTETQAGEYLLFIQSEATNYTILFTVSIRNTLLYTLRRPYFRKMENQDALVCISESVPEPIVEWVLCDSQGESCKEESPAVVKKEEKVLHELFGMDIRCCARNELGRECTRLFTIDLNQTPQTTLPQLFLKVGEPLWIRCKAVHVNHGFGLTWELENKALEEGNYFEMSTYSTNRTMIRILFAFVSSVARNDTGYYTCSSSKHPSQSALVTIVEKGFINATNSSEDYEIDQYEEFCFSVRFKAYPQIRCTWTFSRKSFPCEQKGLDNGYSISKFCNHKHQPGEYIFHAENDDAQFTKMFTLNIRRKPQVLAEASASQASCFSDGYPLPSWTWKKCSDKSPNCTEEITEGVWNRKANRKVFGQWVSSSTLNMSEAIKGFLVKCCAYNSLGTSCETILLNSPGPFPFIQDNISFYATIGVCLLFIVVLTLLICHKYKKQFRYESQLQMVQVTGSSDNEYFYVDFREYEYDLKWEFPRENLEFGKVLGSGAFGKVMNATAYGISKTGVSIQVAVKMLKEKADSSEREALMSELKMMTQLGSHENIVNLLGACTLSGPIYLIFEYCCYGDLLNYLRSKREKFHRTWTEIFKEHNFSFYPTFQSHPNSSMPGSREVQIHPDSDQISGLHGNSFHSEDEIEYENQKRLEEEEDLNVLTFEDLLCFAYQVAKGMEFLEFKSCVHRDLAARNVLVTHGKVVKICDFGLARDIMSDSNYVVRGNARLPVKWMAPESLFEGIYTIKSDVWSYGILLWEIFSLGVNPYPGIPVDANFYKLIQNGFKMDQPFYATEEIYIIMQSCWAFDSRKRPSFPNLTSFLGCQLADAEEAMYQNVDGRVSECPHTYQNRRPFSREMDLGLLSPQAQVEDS
EXPERIMENT: FACS on cells

Some binders with known FACS geometric mean fold change over Jurkat parental results, for comparison:
Polypeptide No. 213 (scFv, V domains shown, scFv) VH: QVQLVQSGAEVKKPGASVKVSCKASGYTFSRYYMSWVRQAPGQGLEWMGWMNPNSGNTGYAQKFQGRVTMTRDTSTSTVYMELSSLRSEDTAVYYCARTRFAAQPHNWHFDLWGRGTLVTVSS VL: DIQMTQSPSSLSASVGDRVTITCRASQSISSYLNWYQQKPGKAPKLLIYDASNLKTGVPSRFSGSGSGTDFTLTISSLQPEDFATYYCQQSYSTPLTFGPGTKVDIKR :: 10 to 30 fold
Polypeptide No. 215 (scFv, V domains shown, scFv) VH: QVQLVQSGAEVKKPGASVKVSCKASGYTFTGYRMHWVRQAPGQGLEWMGWINPNSGGTNYAQKFQGRVTMTRDTSTSTVYMELSSLRSEDTAVYYCAKGGLDWRNWYFDLWGRGTLVTVSS VL: DIQMTQSPSSLSASVGDRVTITCRASQGISSYLAWYQQKPGKAPKLLIYAASTLQSGVPSRFSGSGSGTDFTLTISSLQPEDFATYYCQQSYSTPLTFGGGTKVEIKR :: 10 to 30 fold

Continue with the next binder.
Request: Could you tell me which FACS geometric mean fold change over Jurkat parental is on file for Polypeptide No. 246 (scFv, V domains shown, scFv) VH: QVQLVQSGAEVKKPGSSVKVSCKASGGTFTSYFMHWVRQAPGQGLEWMGGIIPMFGAPVYAQDFQGRVTITADESTSTAYMELSSLRSEDTAVYYCAAGLDFWSGPDNYYMDVWGKGTTVTVSS VL: DIQMTQSPSSLSASVGDRVTITCQATQDISNYLNWYQQKPGKAPKLLIYGASNLPSGVPSRFSGSGSGTDFTLTISSLQPEDFATYYCQQSYSDLLTFGPGTKVDIKR ?
Response: 2 to 10 fold
